measure: melting point

Worked cases, answers included:
- molecule: "CCCSc1nnc(S)s1"
  melting point: "145 to 147 °C"
- molecule: "O=C(O)[C@@H]1CCCC[C@H]1C(=O)c1ccccc1 (relative stereo)"
  melting point: "150 to 153 °C"

Task: Param item = "Cc1nc2ccc(S(=O)(=O)Cl)cc2s1" ; retrieve measured melting point.
Output: 98 to 101 °C

----------
measure: melting point (°C)
Express the result in °C but write the number alone.

- compound: "Cc1ccc(C(=O)O)cc1Br"
  endpoint-unit: "°C"
  melting point: 208
- compound: "COC1=CC(=O)CC(C)C12Oc1c(Cl)c(OC)cc(OC)c1C2=O (configuration not stated)"
  endpoint-unit: "°C"
  melting point: 219
- compound: "O=C(OCC(=O)N1CCCC1)c1ccccc1"
  endpoint-unit: "°C"
  melting point: 58

// moving on: another record for melting point
Task: For "COc1ccc(/N=N/c2sc(CC#N)nc2C)cc1" , what is its reported melting point?
Output: 158
